# system-name: GHSR1a (Homo sapiens)
# Construct: expressed in transfected cells; host or cells: HEK293
# Sequence (Q92847 whole entry): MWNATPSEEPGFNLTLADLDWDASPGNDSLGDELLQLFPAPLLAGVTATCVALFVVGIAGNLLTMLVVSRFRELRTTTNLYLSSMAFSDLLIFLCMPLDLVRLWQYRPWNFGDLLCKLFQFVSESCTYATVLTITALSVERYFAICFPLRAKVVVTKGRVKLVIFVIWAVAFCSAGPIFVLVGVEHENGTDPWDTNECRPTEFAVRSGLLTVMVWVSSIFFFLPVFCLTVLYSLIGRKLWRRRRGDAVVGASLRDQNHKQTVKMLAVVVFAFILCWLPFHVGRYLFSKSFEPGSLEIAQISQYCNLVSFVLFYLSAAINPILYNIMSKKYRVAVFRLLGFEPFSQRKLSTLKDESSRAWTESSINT
# protocol-summary: Calcium FLIPR assay, GHSR-1a agonism
# Assay type: cell-based
# Set-up: unit not given here
# condition-context: HEK293/GHSR1a cells
assay-endpoint: Emax
Could you respond with only the numeric value?

Ask | Dear colleague, please send me the reported Emax for CC(NC(=O)N(C)C1CCN(C)CC1)c1ccc(C#CCN2CCN(C)CC2)c(Cl)c1Cl (stereo not shown) when you can.
Reply | 871

Ask | Dear colleague, please send me the reported Emax for C[C@H](NC(=O)N(C)C1CCN(C)C1)c1ccc(C#CC2CC2)c(Cl)c1Cl (stereo partly shown) when you can.
Reply | 1340

Ask | Dear colleague, please send me the reported Emax for COc1ccc(C(C)(C#N)NC(=O)N(C)C2CCN(C)CC2)c(Cl)c1Cl (stereo not shown) when you can.
Reply | 3748

Ask | Dear colleague, please send me the reported Emax for CC(NC(=O)N(C)C1CCN(C)CC1)c1ccc(-c2ccccn2)c(Cl)c1Cl (stereo not shown) when you can.
Reply | 2150

Ask | Dear colleague, please send me the reported Emax for COc1ccc(C(C#N)NC(=O)N(C)C2CCN(C)CC2)c(Cl)c1Br (stereo not shown) when you can.
Reply | 2400

Ask | Dear colleague, please send me the reported Emax for CC(C)C#Cc1ccc(C(C)NC(=O)N(C)C2CCN(C)CC2)c(Cl)c1Cl (stereo not shown) when you can.
Reply | 1683

Ask | Dear colleague, please send me the reported Emax for CC(NC(=O)N(C)C1CCN(C)CC1)c1ccc(-c2cccc(F)c2)c(Cl)c1Cl (stereo not shown) when you can.
Reply | 2339

Ask | Dear colleague, please send me the reported Emax for C#Cc1ccc(C(CC2CC2)NC(=O)N(OC)C2CCN(C)CC2)c(Cl)c1Cl (stereo not shown) when you can.
Reply | 3620

Ask | Dear colleague, please send me the reported Emax for CC(NC(=O)N(C)C1CCN(C)CC1)c1ccc(CC#N)c(Cl)c1Cl (stereo not shown) when you can.
Reply | 4714

Ask | Dear colleague, please send me the reported Emax for CC(NC(=O)N(C)C1CCN(C)CC1)c1ccc(C#CCO)c(Cl)c1Cl (stereo not shown) when you can.
Reply | 2196

----------
# protocol-summary: Metabolic Stability (H = Human)
# Format: in vitro ADME
assay-endpoint: Metabolic Stability H

C[C@H](NC(=O)N(C)[C@@H]1CCN(C)CC1(C)C)c1ccc(-c2cnccn2)c(Cl)c1Cl [Compound H0890]	High H High M
CC(NC(=O)N(C)C1CCN(C)CC1)c1ccc(-c2cscn2)c(Cl)c1Cl (centres unmarked) [Compound H0568]	High H High M
C[C@H](NC(=O)N(C)C1CCN(C)C1)c1ccc(-c2cncc(F)n2)c(Cl)c1Cl (some centres unmarked) [Compound H0872]	High
CN1CCC(N(C)C(=O)NC(c2ccc(-c3cnccn3)c(Cl)c2Cl)C(F)(F)F)CC1 (centres unmarked) [Compound H0830]	High

----------
# system-name: GHSR1a (Homo sapiens)
# protocol-summary: Calcium FLIPR assay, GHSR-1a agonism
# condition-context: HEK293/GHSR1a cells
pEC50: −log10 of the molar value.
assay-endpoint: pEC50

Ask | Report the value of pEC50 obtained on GHSR1a (Homo sapiens) for CC(NC(=O)N(C)C1CCN(C)CC1)c1ccc(-c2ccc(C(N)=O)s2)c(Cl)c1Cl (centres unmarked) [Compound H0691] .
Reply | < 4.52

Ask | Report the value of pEC50 obtained on GHSR1a (Homo sapiens) for CC(NC(=O)N(C)C1CCN(C)CC1)c1ccc(-c2cncc(/C=N/O)c2)c(Cl)c1Cl (centres unmarked) [Compound H0646] .
Reply | < 4.52

Ask | Report the value of pEC50 obtained on GHSR1a (Homo sapiens) for CN1CCC(N(C)C(=O)NC2(c3ccc(-c4cncnc4)c(Cl)c3Cl)CCOCC2)CC1 [Compound H0727] .
Reply | < 4.52

Ask | Report the value of pEC50 obtained on GHSR1a (Homo sapiens) for CC(NC(=O)N(C)C1CCN(C)CC1)c1ccc(C#Cc2ccco2)c(Cl)c1Cl (centres unmarked) [Compound H0762] .
Reply | < 4.52

Ask | Report the value of pEC50 obtained on GHSR1a (Homo sapiens) for COC(=O)c1ccc(C(C)NC(=O)N(C)C2CCN(C)CC2)c(Cl)c1Cl (centres unmarked) [Compound H0521] .
Reply | 7.72

Ask | Report the value of pEC50 obtained on GHSR1a (Homo sapiens) for Cc1cncc(-c2ccc(C(C)NC(=O)N(C)C3CCN(C)CC3)c(Cl)c2Cl)n1 (centres unmarked) [Compound H0815] .
Reply | < 4.52

Ask | Report the value of pEC50 obtained on GHSR1a (Homo sapiens) for C#Cc1ccc(C(C)NC(=O)N(C)C2CCN(C)CC2)c(Cl)c1Cl (single isomer, unassigned) [Compound H0678] .
Reply | < 4.52

Ask | Report the value of pEC50 obtained on GHSR1a (Homo sapiens) for C[C@H](NC(=O)N(C)C1CCN(C)C1)c1ccc(-c2cnccn2)c(Cl)c1Cl (single isomer, unassigned) [Compound H0861] .
Reply | < 4.52

----------
Task for the reader: assign each of the following compounds its reported EC50.
# system-name: GHSR1a (Homo sapiens)
# protocol-summary: Calcium FLIPR assay, GHSR-1a agonism
# condition-context: HEK293/GHSR1a cells

Ask | Dear colleague, please send me the reported EC50 for CCN1CCN(c2ncc(-c3ccc(C(C)NC(=O)N(C)C4CCN(C)CC4)c(Cl)c3Cl)cn2)CC1=O (stereo not drawn) when you can.
Reply | 0.015 µM

Ask | Dear colleague, please send me the reported EC50 for COC(=O)c1ccc(CN(C(=O)NC(C)c2ccc(-c3cn[nH]c3)c(Cl)c2Cl)C2CCN(C)CC2)cc1 (stereo not drawn) when you can.
Reply | > 30 µM

Ask | Dear colleague, please send me the reported EC50 for C[C@H](NC(=O)N(C)C1CCN(C)C1)c1ccc(-c2cnccn2)c(Cl)c1Cl (single isomer, unassigned) [Compound H0862] when you can.
Reply | > 30 µM

Ask | Dear colleague, please send me the reported EC50 for CC(NC(=O)N(C)C1CCN(C)CC1)c1ccc(-c2ccncc2)c2ccccc12 (stereo not drawn) when you can.
Reply | > 30 µM

Ask | Dear colleague, please send me the reported EC50 for CC(NC(=O)N(C)C1CCN(C)CC1)c1ccc(-c2cncc(C(F)F)c2)c(Cl)c1Cl (stereo not drawn) when you can.
Reply | > 30 µM

Ask | Dear colleague, please send me the reported EC50 for CC(NC(=O)N(C)C1CCN(C)CC1)c1ccc(-c2cccc3c2cnn3C)c(Cl)c1Cl (stereo not drawn) when you can.
Reply | > 30 µM

Ask | Dear colleague, please send me the reported EC50 for CC(NC(=O)N(C)C1CCN(C)CC1)c1ccc(-c2cnc3[nH]ncc3c2)c(Cl)c1Cl (stereo not drawn) when you can.
Reply | > 30 µM

Ask | Dear colleague, please send me the reported EC50 for CC(NC(=O)N(C)C1CCN(C)CC1)c1ccc(NC2CC2)c(Cl)c1Cl (stereo not drawn) when you can.
Reply | 0.13 µM

Ask | Dear colleague, please send me the reported EC50 for CC(NC(=O)N(C)C1CCN(C)CC1)c1ccc(-c2cnc(N3CCCC3)nc2)c(Cl)c1Cl (stereo not drawn) when you can.
Reply | 0.528 µM

Ask | Dear colleague, please send me the reported EC50 for CC(NC(=O)N(C)C1CCN(C)CC1)c1ccc(-c2cn[nH]c2)c(Cl)c1F (stereo not drawn) when you can.
Reply | > 30 µM

Ask | Dear colleague, please send me the reported EC50 for CC(NC(=O)N(C)C1CCOCC1)c1ccc(-c2cncnc2)c(Cl)c1Cl (stereo not drawn) when you can.
Reply | 63 µM

Ask | Dear colleague, please send me the reported EC50 for CCOC(C#Cc1ccc(C(C)NC(=O)N(C)C2CCN(C)CC2)c(Cl)c1Cl)OCC (stereo not drawn) when you can.
Reply | 0.654 µM

Ask | Dear colleague, please send me the reported EC50 for CCC(NC(=O)N(C)C1CCN(C)C1)c1ccc(-c2cnccn2)c(Cl)c1Cl (stereo not drawn) when you can.
Reply | > 30 µM

Ask | Dear colleague, please send me the reported EC50 for C#Cc1ccc(C(CC2CC2)NC(=O)N(OC)C2CCN(C)CC2)c(Cl)c1Cl (stereo not drawn) when you can.
Reply | 0.0015 µM

Ask | Dear colleague, please send me the reported EC50 for CC(NC(=O)N(C)C1CCN(C)CC1)c1ccc(-c2ccoc2)c(Cl)c1Cl (stereo not drawn) when you can.
Reply | 0.012 µM

Ask | Dear colleague, please send me the reported EC50 for CC(=O)c1ccc(-c2ccc(C(C)NC(=O)N(C)C3CCN(C)CC3)c(Cl)c2Cl)s1 (stereo not drawn) when you can.
Reply | > 30 µM

Ask | Dear colleague, please send me the reported EC50 for CC(=O)N1CCC(N(C)C(=O)NC(C)c2ccc(-c3cncnc3)c(Cl)c2Cl)CC1 (stereo not drawn) when you can.
Reply | > 30 µM

Ask | Dear colleague, please send me the reported EC50 for CC(NC(=O)N(C)C1CCN(C)CC1)c1ccc(-c2cncc(-c3c[nH]cn3)c2)c(Cl)c1Cl (stereo not drawn) when you can.
Reply | > 30 µM

Ask | Dear colleague, please send me the reported EC50 for CC(NC(=O)N(C)C1CCN(C)CC1)c1ccc(C#Cc2nccs2)c(Cl)c1Cl (stereo not drawn) when you can.
Reply | > 30 µM

Ask | Dear colleague, please send me the reported EC50 for CC(NC(=O)N(C)C1CCN(C)CC1)c1ccc(C#Cc2ccccc2)c(Cl)c1Cl (stereo not drawn) when you can.
Reply | > 30 µM

Ask | Dear colleague, please send me the reported EC50 for CC(NC(=O)N(C)C1CCN(C)CC1)c1ccc(-c2cc(F)cc(CO)c2)c(Cl)c1Cl (stereo not drawn) when you can.
Reply | > 30 µM

Ask | Dear colleague, please send me the reported EC50 for CC(NC(=O)N(C)C1CCN(C)CC1)c1ccc(-c2cn[nH]c2)c2ccccc12 (stereo not drawn) when you can.
Reply | > 30 µM

Ask | Dear colleague, please send me the reported EC50 for CC(NC(=O)N(C)C1CCN(C)CC1)c1ccc(-c2cnc(N)nc2)c(Cl)c1Cl (stereo not drawn) when you can.
Reply | > 30 µM

Ask | Dear colleague, please send me the reported EC50 for CC(NC(=O)N(C)C1CCN(C)CC1)c1ccc(-c2cnccn2)c(Cl)c1Cl (stereo not drawn) when you can.
Reply | > 30 µM
